- System: UACC-62 melanoma
- Method Summary: NCI tumour cell line growth inhibition, 48 h
Each entry below lists one item and its recorded TGI value.
Measure Name: TGI

[[record]]
compound = "CCOC(=O)C1=CNC(C(=O)OCC)C1c1cccn1-c1ccccc1 (stereo not given)"
meas_value = "> 100 µM"

[[record]]
compound = "CCC1c2cc3n(c(=O)c2COC1O)Cc1c-3nc2ccccc2c1Cl (stereo not given)"
meas_value = "> 100 µM"

[[record]]
compound = "COc1ccc(-n2c(Cn3nnc(-c4cccnc4)n3)nn(C3OC(COC(=O)c4ccccc4)C(OC(=O)c4ccccc4)C3OC(=O)c3ccccc3)c2=S)cc1 (stereo not given)"
meas_value = "> 100 µM"

[[record]]
compound = "O=c1c(O)cc2c(O)oc3c(=O)c(O)c(O)c4c(O)oc1c2c43"
meas_value = "> 100 µM"

[[record]]
compound = "C/C(=N\\O)C1CC2C=C(C#N)C1N(Cc1ccccc1)C2 (stereo not given)"
meas_value = "> 100 µM"


====

- System: SF-295 CNS
- Method Summary: NCI tumour cell line growth inhibition, 48 h
Measure Name: TGI

[[record]]
compound = "NC1=NC2=C(CCCC2)C(c2cccs2)S1 (stereo unspecified)"
meas_value = "> 100 µM"

[[record]]
compound = "COc1ccc2[nH]c3c4c(cc(-c5ccccc5)c3c2c1)C(=O)N(c1ccccc1)C4=O"
meas_value = "33.7 µM"

[[record]]
compound = "O=C1Nc2ccccc2/C1=C\\c1c(-c2ccccc2)nc2n1CCS2"
meas_value = "48.6 µM"

[[record]]
compound = "CC(C)(CN1CCCCC1)C(=O)CC(SCCN)c1ccc(Cl)cc1 (stereo unspecified)"
meas_value = "12.4 µM"

[[record]]
compound = "CC(C)COP(C)(=O)C(N)(C(F)(F)F)C(F)(F)F (stereo unspecified)"
meas_value = "> 100 µM"

[[record]]
compound = "O=Cc1ccc(-c2ccc(-c3ccc(C=O)o3)[se]2)o1"
meas_value = "> 65.6 µM"

[[record]]
compound = "O=C(CCc1ccc(O)c(O)c1)NCCc1cc(O)c(O)c(O)c1"
meas_value = "33.3 µM"

[[record]]
compound = "C=C(COC(C)=O)CC(/C=C(\\C)CC/C=C(\\C)CO)OC(C)=O (stereo unspecified)"
meas_value = "> 100 µM"

[[record]]
compound = "c1ccc2nn(C3CCCO3)nc2c1 (stereo unspecified)"
meas_value = "> 100 µM"

[[record]]
compound = "O=C(Oc1c(Br)cc(Br)cc1C(=O)Oc1ccccc1)C(=O)Oc1c(Br)cc(Br)cc1C(=O)Oc1ccccc1"
meas_value = "> 100 µM"

[[record]]
compound = "COc1ccc(NS(=O)c2c(C)cc(C)cc2C)cc1 (stereo unspecified)"
meas_value = "> 100 µM"

[[record]]
compound = "CO[C@H]1O[C@@H]2OC3(C)CCC4[C@H](C)CCC([C@H]1C)[C@]42OO3 (stereo partly specified)"
meas_value = "> 100 µM"

[[record]]
compound = "N#C/C(=C\\c1ccc(F)cc1)n1nc2cccc(F)c2n1"
meas_value = "> 100 µM"

[[record]]
compound = "O=C(Cc1ccccc1)NN1C(=O)C(Cl)C1c1cccc([N+](=O)[O-])c1 (stereo unspecified)"
meas_value = "> 100 µM"

[[record]]
compound = "CSC1=C(C#N)C(=O)N(c2ccc(C)cc2)C(=O)C1C#N (stereo unspecified)"
meas_value = "> 100 µM"

[[record]]
compound = "COc1cc2c(cc1O)Cc1c-2[n+](C)cc2cc(OC)c(OC)cc12"
meas_value = "> 100 µM"


Sourced from PubChem BioAssay (NCI)
